The reported measurements were obtained from ChEMBL document CHEMBL4316614.

Molecular target: DNA topoisomerase II (Homo sapiens, UniProt P11388+Q02880)
Assay: Inhibition of topoisomerase 2 in human A549 cells assessed as reduction in cell growth measured after 72 hrs by MTT assay
Assay type: cell-based
Catalogue of compounds with associated IC50
Only the number, expressed in µM, is required.

Past entries and their recorded results:
CC(C)=CC[C@@H](O)C1=CC(=O)c2c(O)ccc(O)c2C1=O [SHIKONIN] = 16
COc1ccc(C(O)c2cc(O)c3c(c2O)C(=O)c2ccccc2C3=O)cc1Br (centres undefined) = 24.1
O=C1c2ccccc2C(=O)c2c(O)c(C(O)c3ccc(OC(F)(F)F)cc3)cc(O)c21 (centres undefined) = 22.3
O=C1c2ccccc2C(=O)c2c(O)c(C(O)c3cccs3)cc(O)c21 (centres undefined) = 28.9

Now take the following compound into account.
Exercise: Looking for the measured IC50 of Cc1ccc(C(O)c2cc(O)c3c(c2O)C(=O)c2ccccc2C3=O)s1 (centres undefined) , can you help?
Solution: 35.8

###

Target: DNA topoisomerase II (Homo sapiens, UniProt P11388+Q02880)
Experiment: Inhibition of topoisomerase 2 in human CNE1 cells assessed as reduction in cell growth measured after 72 hrs by MTT assay
Assay type: cell-based
Catalogue of molecules with associated IC50
Only the number, expressed in µM, is required.

Past entries and their recorded results:
O=C1c2ccccc2C(=O)c2c(O)c(C(O)c3cc(Br)cs3)cc(O)c21 (centres undefined) = 19.7
CC(C)=CC[C@@H](O)C1=CC(=O)c2c(O)ccc(O)c2C1=O = 12.5
N#Cc1ccc(C(O)c2cc(O)c3c(c2O)C(=O)c2ccccc2C3=O)cc1 (centres undefined) = 12.6
O=C1c2ccccc2C(=O)c2c(O)c(C(O)c3ccc(OC(F)(F)F)cc3)cc(O)c21 (centres undefined) = 13.7
O=C1c2ccccc2C(=O)c2c(O)c(C(c3ccc(C(F)(F)F)cc3)N(CCCl)CCCl)cc(O)c21 (centres undefined) = 16.1

Exercise: Looking for the measured IC50 of O=C1c2ccccc2C(=O)c2c(O)c(C(O)c3ccc(C(F)(F)F)cc3)cc(O)c21 (centres undefined) , can you help?
Solution: 13.7

Exercise: Looking for the measured IC50 of O=C1c2ccccc2C(=O)c2c(O)c(C(c3ccc(OC(F)(F)F)cc3)N(CCCl)CCCl)cc(O)c21 (centres undefined) , can you help?
Solution: 11.3

###

Catalogue of compounds with associated log10 of IC50
Biological target: DNA topoisomerase II (Homo sapiens, UniProt P11388+Q02880)
Assay: Inhibition of topoisomerase 2 in human CNE1 cells assessed as reduction in cell growth measured after 72 hrs by MTT assay
Type: cell-based
In our notation, the value equals log10 of IC50 in µM.

Exercise: Requested read-out log10 of IC50, target or system DNA topoisomerase II (Homo sapiens, UniProt P11388+Q02880), entry CSc1ccc(C(c2cc(O)c3c(c2O)C(=O)c2ccccc2C3=O)N(CCCl)CCCl)cc1 (centres undefined)
Solution: 1.19

Exercise: Requested read-out log10 of IC50, target or system DNA topoisomerase II (Homo sapiens, UniProt P11388+Q02880), entry O=C1c2ccccc2C(=O)c2c(O)c(C(O)c3cccs3)cc(O)c21 (centres undefined)
Solution: 1.22

Exercise: Requested read-out log10 of IC50, target or system DNA topoisomerase II (Homo sapiens, UniProt P11388+Q02880), entry COc1cccc2c1C(=O)c1c(O)c3c(c(O)c1C2=O)C[C@@](O)(C(=O)CO)C[C@@H]3O[C@H]1C[C@H](N)[C@H](O)[C@H](C)O1
Solution: 0.08

Exercise: Requested read-out log10 of IC50, target or system DNA topoisomerase II (Homo sapiens, UniProt P11388+Q02880), entry Cc1ccc(C(O)c2cc(O)c3c(c2O)C(=O)c2ccccc2C3=O)s1 (centres undefined)
Solution: 1.37

Exercise: Requested read-out log10 of IC50, target or system DNA topoisomerase II (Homo sapiens, UniProt P11388+Q02880), entry O=C1c2ccccc2C(=O)c2c(O)c(C(O)c3ccc(Cl)s3)cc(O)c21 (centres undefined)
Solution: 1.25

Exercise: Requested read-out log10 of IC50, target or system DNA topoisomerase II (Homo sapiens, UniProt P11388+Q02880), entry O=C1c2ccccc2C(=O)c2c(O)c(C(O)c3ccc(Cl)cc3Cl)cc(O)c21 (centres undefined)
Solution: 1.10

Exercise: Requested read-out log10 of IC50, target or system DNA topoisomerase II (Homo sapiens, UniProt P11388+Q02880), entry O=C1c2ccccc2C(=O)c2c(O)c(C(O)c3ccc(Br)s3)cc(O)c21 (centres undefined)
Solution: 1.16
